test system: SK-MEL-28 melanoma; experiment: NCI tumour cell line growth inhibition, 48 h; in the data active means GI50 below about 0.43 µM; inactive means the rest
Where a SMILES comes first, the peptide text is derived from it. The star is where a group is joined. Boc = CC(C)(C)OC(=O)*
Possible outcomes: YES = active, NO = inactive

[[record]]
compound = "CC(C)OC(=O)[C@H](C)NP(=O)(OC[C@H]1O[C@@H](n2ccc(=O)[nH]c2=O)[C@](C)(F)[C@@H]1O)Oc1ccccc1 (stereo partly drawn)"
label_class = "NO"

[[record]]
compound = "CCOC(=O)/C=C/c1ccc(C#Cc2ccccc2)cc1"
label_class = "NO"

[[record]]
compound = "CCOC(=O)c1c(-c2ccc(OC)cc2)c(C#N)c2c(C#N)c(N)nn2c1N"
label_class = "NO"

[[record]]
compound = "CC1(C)N=C(N)N=C(N)N1c1ccc(CCCCc2ccc(Cl)c(S(=O)(=O)F)c2)c(Cl)c1"
label_class = "NO"

[[record]]
compound = "Cn1c(Nc2ccc(C(F)(F)F)cc2)nc2cc(Oc3ccnc(-c4ncc(C(F)(F)F)[nH]4)c3)ccc21"
label_class = "YES"

[[record]]
compound = "COC(=O)C1=CN(CC2=CC(=O)C(C)=CC2=O)C=C(C(=O)OC)C1c1cccc(OC)c1"
label_class = "NO"

[[record]]
compound = "Cn1c(=O)c(Oc2ccc(F)cc2)cc2cnc(NC3CCOCC3)nc21"
label_class = "NO"

[[record]]
compound = "COC(=O)C(C)NC(=O)C(CCSC)NC(=O)C(Cc1ccccc1)NC(=O)OC(C)(C)C (stereo not drawn) (Boc-Phe-Met-Ala-OMe; configuration not given here)"
label_class = "NO"

